# System: CH1
# Protocol Text: SRB growth inhibition assay, CH1
# Type: cell-based, human
# Recorded Conditions: 96 h exposure
pIC50: −log10 of the molar value.

{"Compound": "N.N.N.N.NCCCCN(CCCN)C(=O)OCc1ccccc1.[Cl-].[Cl-].[Cl][Pt+].[Cl][Pt+] [Compound 3]", "System": "CH1", "pIC50": 4.60}
{"Compound": "CC(C)(C)OC(=O)N(CCCN)CCCCN.N.N.N.N.[Cl-].[Cl-].[Cl][Pt+].[Cl][Pt+] [Compound 2]", "System": "CH1", "pIC50": 5.10}
{"Compound": "N.N.N.N.NCCCC[NH2+]CCCN.[Cl-].[Cl-].[Cl-].[Cl][Pt+].[Cl][Pt+] [Compound 1]", "System": "CH1", "pIC50": 6.37}
{"Compound": "N.N.[Cl][Pt][Cl] [cisplatin, reference compound]", "System": "CH1", "pIC50": 6.47}
{"Compound": "CC(=O)N(CCCN)CCCCN.N.N.N.N.[Cl-].[Cl-].[Cl][Pt+].[Cl][Pt+] [Compound 5]", "System": "CH1", "pIC50": 5.13}
{"Compound": "N.N.N.N.NCCCCN(CCCN)C(=O)OCC1c2ccccc2-c2ccccc21.[Cl-].[Cl-].[Cl][Pt+].[Cl][Pt+] [Compound 4]", "System": "CH1", "pIC50": 4.34}
{"Compound": "N.N.N.N.NCCCCN(CCCN)C(=O)C(F)(F)F.[Cl-].[Cl-].[Cl][Pt+].[Cl][Pt+] [Compound 7]", "System": "CH1", "pIC50": 5.62}

----------
# Test system: L1210/0
# Protocol Text: Cellular accumulation in L1210/0 cells
# Format: cell-based, murine
# Recorded Conditions: 2 hours of exposure; (±SE), 3 experiments of 2 determinations

{"Compound": "N.N.N.N.NCCCC[NH2+]CCCN.[Cl-].[Cl-].[Cl-].[Cl][Pt+].[Cl][Pt+]", "Accumulation L1210/0": "17 (3.4) attamol Pt complex/cell"}
{"Compound": "N.N.[Cl][Pt][Cl] [cisplatin, reference compound]", "Accumulation L1210/0": "5.0 (0.89) attamol Pt complex/cell"}
{"Compound": "CC(C)(C)OC(=O)N(CCCN)CCCCN.N.N.N.N.[Cl-].[Cl-].[Cl][Pt+].[Cl][Pt+]", "Accumulation L1210/0": "5.0 (0.63) attamol Pt complex/cell"}
{"Compound": "N.N.N.N.NCCCCCCN.[Cl][Pt+].[Cl][Pt+] [1,1/tt, [trans-{PtCl(NH3)2}2H2N(CH2)6NH2]^2+, reference compound]", "Accumulation L1210/0": "3.8 (0.70) attamol Pt complex/cell"}

----------
# System: L1210/DDP
# Protocol Text: Cellular accumulation in L1210/DDP cells
# Assay type: cell-based, murine
# Recorded Conditions: 2 hours of exposure; (±SE), 3 experiments of 2 determinations
A collection of compounds and their measured Accumulation L1210/DDP

{"Compound": "N.N.N.N.NCCCCCCN.[Cl][Pt+].[Cl][Pt+] [1,1/tt, [trans-{PtCl(NH3)2}2H2N(CH2)6NH2]^2+, reference compound]", "Accumulation L1210/DDP": "0.67 (0.21) attamol Pt complex/cell"}
{"Compound": "N.N.N.N.NCCCC[NH2+]CCCN.[Cl-].[Cl-].[Cl-].[Cl][Pt+].[Cl][Pt+]", "Accumulation L1210/DDP": "20 (2.1) attamol Pt complex/cell"}
{"Compound": "CC(C)(C)OC(=O)N(CCCN)CCCCN.N.N.N.N.[Cl-].[Cl-].[Cl][Pt+].[Cl][Pt+]", "Accumulation L1210/DDP": "4.8 (0.75) attamol Pt complex/cell"}
{"Compound": "N.N.[Cl][Pt][Cl] [cisplatin, reference compound]", "Accumulation L1210/DDP": "1.5 (0.76^ attamol Pt complex/cell"}

----------
# Tested on: A2780
# Protocol Text: SRB growth inhibition assay, A2780
# Format: cell-based, human
# Recorded Conditions: 96 h exposure
pIC50: −log10 of the molar value.
A collection of molecules and their measured pIC50
Reported Property: pIC50

{"Molecule": "CC(=O)N(CCCN)CCCCN.N.N.N.N.[Cl-].[Cl-].[Cl][Pt+].[Cl][Pt+]", "Value Prefix": "=", "Observed Value": 4.85}
{"Molecule": "N.N.N.N.NCCCC[NH2+]CCCN.[Cl-].[Cl-].[Cl-].[Cl][Pt+].[Cl][Pt+]", "Value Prefix": ">", "Observed Value": 6.60}
{"Molecule": "CC(C)(C)OC(=O)N(CCCN)CCCCN.N.N.N.N.[Cl-].[Cl-].[Cl][Pt+].[Cl][Pt+]", "Value Prefix": "=", "Observed Value": 5.68}
{"Molecule": "N.N.N.N.NCCCCN(CCCN)C(=O)OCC1c2ccccc2-c2ccccc21.[Cl-].[Cl-].[Cl][Pt+].[Cl][Pt+]", "Value Prefix": "=", "Observed Value": 6.08}
{"Molecule": "N.N.[Cl][Pt][Cl] [cisplatin, reference compound]", "Value Prefix": "=", "Observed Value": 5.80}
{"Molecule": "N.N.N.N.NCCCCN(CCCN)C(=O)C(F)(F)F.[Cl-].[Cl-].[Cl][Pt+].[Cl][Pt+]", "Value Prefix": "=", "Observed Value": 5.17}
{"Molecule": "N.N.N.N.NCCCCN(CCCN)C(=O)OCc1ccccc1.[Cl-].[Cl-].[Cl][Pt+].[Cl][Pt+]", "Value Prefix": "=", "Observed Value": 4.62}
